Values from patent US4684651A

# METHOD: Acute toxicity (LD50) in mice
# CONDITION PARAMETERS: mouse, in vivo, iv, Litchfield-Wilcoxon method
MEASURE: LD50
The answer consists of two parts: a number and, after it, its unit.

I am curious: what LD50 value has been reported for `O=C(CCCCN1CCN(c2ccccc2)CC1)c1ccc2c(c1)OCO2` ?
45.7 mg/kg

I am curious: what LD50 value has been reported for OC(CCCN1CCN(c2ccccc2)CC1)c1ccc2c(c1)OCCCO2 (stereo not drawn) ?
184 mg/kg

I am curious: what LD50 value has been reported for OC(CCCN1CCN(c2ccccn2)CC1)c1ccc2c(c1)OCCCO2 (stereo not drawn) ?
68.5 mg/kg
